B1: TPR t1 (parent)
chain: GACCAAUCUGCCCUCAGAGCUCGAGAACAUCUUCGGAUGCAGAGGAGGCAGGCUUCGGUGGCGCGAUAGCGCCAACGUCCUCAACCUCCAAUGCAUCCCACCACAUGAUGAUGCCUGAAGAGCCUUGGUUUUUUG

- Variants of: B1
- protocol-text: polymerase ribozyme fitness, log enrichment relative to wild type (log ratio); higher = more active; in vitro selection for triplet polymerase activity
Classification by polymerase ribozyme fitness (log ratio) | ranges: lower: < -3; middle: ≥ -3 and < -2; upper: ≥ -2

Examples from the recorded data:
>  <entry-sequence>
GACCAAUCUGCCCUCAGAGCUCGAGAACAUCUUCGGAUGCAGAGGAGGCAGGCUUCGGUGGCGCGAUAGCGCCAACAUCCUCAACCUCCAAUGGAUCCCACCACAUGAUGAUGCCUGAAGAGCCUUGGUUUUUUG

>  <label-value>
upper

$$$$
>  <entry-sequence>
GACCAAUCUGCCCUCAGAGCUCGAGAACAUCUUCGGAUGCAGAGGAGGCAGGCUUCGGUGGCGCGAUAGCGCCAACCUCCUCAACCUCCAACGCAUCCCACCACAUGAUGAUGCCUGAAGAACCUUGGUUUUUUG

>  <label-value>
middle

$$$$
>  <entry-sequence>
GACCAAUCUGCCCUCAGAGCUCGAGAACAUCUUCGGAUGCAGAGGAGGCAGGCUUCGGUGGCGCGAUAGCCCCAACGGCCUCAACCUCCAAUGCAUCCCACCACAUGAUGAUGCCUGAAGAGCCUUGGUUUUUUG

>  <label-value>
lower

$$$$

Lookup: Using the reported polymerase ribozyme fitness (log ratio), which band applies to `GACCAAUCUGCACUCAGAGCUCGAGAACAUCUUCGGAUGCAGAGGAGGGAGGCUUCGGUGGCCCGAUAGCGCCAACGUCCUCAACGUCCAAUGCAUCCCACCACAUGAUGAUGCCUGAAGAGCCUUGGUUGUUUG` ?
Found: lower

Lookup: Using the reported polymerase ribozyme fitness (log ratio), which band applies to `GACCCAUCUGCCCUCAGAGCUCGAGAACAUCUUCGGAUGCAGAGGAGGCAGGCUUCGGUAGCGCGAUAGCGCCAACGUCCUCAACCUCCAAUGCAUCCCAUCACAUGAUGAUGCCUGAAGAGCCUUGGUUUUUUG` ?
Found: upper

Lookup: Using the reported polymerase ribozyme fitness (log ratio), which band applies to `GACCAAUCUGCCCUCAGAGCUCGAGAACAUCUUCGGUUGCAGAGGAGGCAGGCUUCGCUGGCGCGAUAGCGCCAUCGUCUUCAACCUCCAAUACAUACCACCACAUGAUGAUGCCUGAAGAGCCUUGGUUUUUUG` ?
Found: lower
